TEST DETAILS: chemical genetic growth profiling, strain panel (AID 1159580);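 note: tested at 20 µM; growth read once vehicle control cultures reached saturation at 30 °C; 1 = growth at the plate median or of vehicle wells; lower values mean less growth of the strain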
EXPERIMENTAL CONDITIONS: S. cerevisiae deletion strains, growth OD, locus YGL167C, strain pmr1, hits give low values
Hit rate of the full screen: of about 5,500 compounds, about 2,000 (36%) were called active. Roughly 18% stayed inconclusive and do not appear here. The list shows a part of the results.
ASSAY METRIC: normalized growth

molecule="CCCC(C)C1(CC)C(=O)N=C(S)NC1=O (stereo not drawn)" reported_measurement=0.991
molecule="CC(=O)c1c(O)c(C)c(O)c2c1OC1=CC(=O)C(C(C)=O)C(=O)C12C (stereo not drawn)" reported_measurement=1.01
molecule="COC(=O)C[C@H]1C(C)(C)C(=O)[C@@H]2CC3=C4CC(=O)O[C@@H](c5ccoc5)[C@]4(C)CCC3[C@@]1(C)C2=O (stereo partly drawn)" reported_measurement=0.995
molecule=Nc1ccc(C(=O)NCC(=O)O)cc1 reported_measurement=1.02
molecule=Nc1ncn([C@@H]2O[C@H](CO)[C@@H](O)[C@H]2O)c(=O)n1 reported_measurement=0.987
molecule=OC[C@@H]1CCCN2CCCC[C@H]12 reported_measurement=1.02
molecule="CCC(Cc1c(I)cc(I)c(N)c1I)C(=O)O (stereo not drawn)" reported_measurement=0.928
molecule="C=C(C)C1CC=C(CO)CC1 (stereo not drawn)" reported_measurement=0.96
molecule="Nc1ncnc2c1ncn2C1C[C@H](O)[C@@H](CO)O1 (stereo partly drawn)" reported_measurement=1.02
molecule="C=CC(C1=CC(=O)C(OC)=CC1=O)c1ccccc1 (stereo not drawn)" reported_measurement=0.973
molecule=CC(=O)Nc1cc([As](=O)(O)O)ccc1O reported_measurement=1.01
molecule=O=C(O)/C=C/C=C/c1ccccc1 reported_measurement=0.837
molecule=C=C[C@@H](C1=CC(=O)C(OC)=C(OC)C1=O)c1ccccc1 reported_measurement=0.972
molecule=Cc1ccc2c(Cl)cc(Cl)c(O)c2n1 reported_measurement=1.03
molecule=O=[N+]([O-])c1cc([As](=O)(O)O)ccc1O reported_measurement=0.971
molecule=C=C(CC)C(=O)c1ccc(OCC(=O)O)c(Cl)c1Cl reported_measurement=1.01
molecule="Nc1ncnc2c1ncn2C1O[C@H](COP(=O)(O)O)[C@@H](O)[C@H]1O (stereo partly drawn)" reported_measurement=1
molecule="O=C(O)CCCCC1CCSS1 (stereo not drawn)" reported_measurement=0.95
molecule=Cc1occc(=O)c1O reported_measurement=0.961
molecule=Cc1ccsc1/C=C/C1=NCCCN1C reported_measurement=0.987
molecule="CC(C)NCC(O)c1ccc(O)c(O)c1 (stereo not drawn)" reported_measurement=0.989
molecule="CC1(C)C(=O)C=C[C@@]2(C)C1=C(O)C(=O)[C@]1(C)C2CC[C@@]2(C)[C@H](c3ccoc3)C[C@H]3O[C@]321 (stereo partly drawn)" reported_measurement=0.954
molecule="C=CC(C1=CC(=O)C(OC)=CC1=O)c1ccc(OC)cc1 (stereo not drawn)" reported_measurement=0.978
molecule=CC(=O)/C(=C\c1ccccc1)CC(=O)O reported_measurement=0.993
molecule=O=C(O)CF reported_measurement=1.03
molecule=O=C(NC(=O)c1c(F)cccc1F)Nc1ccc(Cl)cc1 reported_measurement=1.02
molecule=O=C(O)c1ccccc1Nc1ccccc1 reported_measurement=0.92
molecule="C[C@H]1[C@H]2CCC3C4CC=C5C[C@@H](N(C)C)CC[C@]5(C)C4CC[C@@]32CN1C (stereo partly drawn)" reported_measurement=0.981
molecule="NCC(O)c1ccc(O)cc1 (stereo not drawn)" reported_measurement=0.997
molecule=NC[C@H](O)c1ccc(O)c(O)c1 reported_measurement=1
molecule=COc1c2c(cc3c1OCO3)CCN(C)C2 reported_measurement=1.02
molecule="O=C1O[C@H](C(O)CO)C(O)=C1O (stereo partly drawn)" reported_measurement=0.984
molecule=CCN(CC)CCOc1ccc(/C(=C(\Cl)c2ccccc2)c2ccccc2)cc1 reported_measurement=0.244
molecule="CC(=O)O[C@@H]1CC2C(C)(C)C=CC(=O)[C@]2(C)C2CC[C@@]3(C)[C@H](c4ccoc4)OC(=O)C4OC43[C@@]21C (stereo partly drawn)" reported_measurement=0.991
molecule="CC1(C)C(C(Cl)Cl)C2(Cl)C(Cl)C(Cl)C1(Cl)C2(Cl)Cl (stereo not drawn)" reported_measurement=0.973
molecule=COC(C)(C)CCC[C@H](C)C/C=C/C(C)=C/C(=O)OC(C)C reported_measurement=1.02
molecule="CC(=O)O[C@H]1C[C@@H](OC(C)=O)C(C)(C)C2C[C@@H](OC(C)=O)[C@@]3(C)C4=CC(=O)O[C@@H](c5ccoc5)[C@]4(C)CCC3[C@]21C (stereo partly drawn)" reported_measurement=0.996
molecule=N[C@@H](Cc1ccc(O)c(O)c1)C(=O)O reported_measurement=0.994
molecule="CC(=O)O[C@@H]1C[C@@]2(C)[C@H](c3ccoc3)C[C@H]3O[C@]32[C@]2(C)C(=O)C(O)=C3C(C)(C)C(=O)C=C[C@]3(C)C12 (stereo partly drawn)" reported_measurement=0.957
molecule="CCCC1O[C@@H]2CC3C4CCC5=CC(=O)C=CC5(C)C4[C@@H](O)CC3(C)[C@]2(C(=O)CO)O1 (stereo partly drawn)" reported_measurement=1.01
molecule="C=CC(C1=CC(=O)C(OC)=CC1=O)c1ccc(O)cc1 (stereo not drawn)" reported_measurement=1.01
molecule=Oc1c(Br)cc(Br)c2cccnc12 reported_measurement=0.079
molecule=C=C(C)[C@H]1CC=C(C(=O)O)CC1 reported_measurement=0.978
molecule="CC1(C)CCCC2(C)C3C1[C@@H](O)C2(C)C[C@H]3O (stereo partly drawn)" reported_measurement=1.01
molecule=O=C(O)C1=CCNCC1 reported_measurement=1.02
molecule=Oc1ccc(Cl)c2cccnc12 reported_measurement=0.0738
molecule=Nc1ccc(S(=O)(=O)Nc2ccc(Cl)nn2)cc1 reported_measurement=0.983
molecule=COc1cccc(/C=C/C(=O)O)c1C(C)C reported_measurement=0.978

Data origin, for the record: PubChem BioAssay AID1159580
